meta.source: PubChem BioAssay

In this section we review reported inhibition values for a set of compounds.
# method summary: HepG2 cytotoxicity, primary screen, cytotoxicity control for P. falciparum antimalarial project, cell-based, ATP luminescence (AID 2303);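 further: 0% = DMSO wells and 100% = digitonin-killed cells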
# condition: HepG2 viability, 24-48 h, at 10 µM, hits give high values
Please give a number only; it is taken to be in %.

Here's what some known entries look like.
{"compound smiles": "CCCC(=O)Nc1ccc(OCCCN(Cc2ccccc2C(F)(F)F)c2ccc(C#N)c(C(F)(F)F)c2)cc1", "measured value": -5}
{"compound smiles": "CC1CCN(c2nc(C(=O)NCCc3ccc(Cl)c(Cl)c3)c(C(C)C)s2)CC1", "measured value": -3}
{"compound smiles": "c1ccc(CCNCc2cccc(-c3ccccc3CNCc3ccc4c(c3)OCO4)c2)nc1", "measured value": 41}

Look up inhibition: `COc1nc2c(CCN3CCC(NCc4ccc5c(n4)NC(=O)CO5)CC3)c(Cl)cnc2cc1F`
17

Suppose we examine the compound `Cc1nc2c(-n3cc(Cn4ccnc4)c4ccccc43)ncnc2n1-c1ccc(Cl)cc1Cl` ; what inhibition value has been reported?
16

---

This section presents compounds with their documented inhibition values.
# system name: L-lactate dehydrogenase (Plasmodium falciparum (isolate CDC / Honduras))
# method summary: PfLDH activity inhibition – cell lysate, 3D7 strain, counter-screen for P. falciparum growth inhibition project (AID 2304);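 further: 0% = vehicle and 100% = reference inhibitor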
# condition: P. falciparum 3D7 crude extract, LDH APAD/NBT absorbance; at 2 µM; hits give high values
Could you give me the number in %? Just the number is fine.

Examples from the recorded data:
{"compound": "CCCCCCc1cc2cc(-c3csc(C=Cc4ccccc4)n3)c(=O)oc2cc1O", "inhibition (%)": 2}
{"compound": "CCCCOc1ccc(/C=C/c2ccc(-c3c(C)[nH]c(C)c(Cl)c3=O)s2)cc1", "inhibition (%)": -2}
{"compound": "CCOC(=O)c1cnc2c(OC)cc(OC)c(Cl)c2c1Nc1cccc(C)c1C", "inhibition (%)": 0}
{"compound": "CCC(C)CN1CCN(c2ccc(NC(=O)c3cccs3)cc2)CC1C (stereo not given)", "inhibition (%)": 1}
{"compound": "Clc1cc(Nc2ncnc3sc(C#C[C@H]4CCCN4)cc23)ccc1OCc1cccnc1Cl", "inhibition (%)": -3}

Name the reported inhibition value associated with the compound `CCCc1ccc(NC(=O)c2ccc(CN3CCCN(Cc4cccc(O)c4)CC3)cc2)cc1`
-1

Query: inhibition; subject: COc1c(C(=O)NC2CCN(Cc3ccccc3)C2)cnc2ccccc12 (stereo not given)
-4

Quick check: inhibition of `CNC(=C[N+](=O)[O-])NCCSCc1cc(C)c(CN(C)C)s1` ?
-1

What inhibition value was documented for this compound, `CCCCCCCc1c(C)[nH]c2cccc(OC)c2c1=O` ?
0

Given the entry `Cc1ccc(N2C(N)=NC(N)=NC2(C)C)cc1` , report its measured inhibition.
0

Need inhibition, item `COc1ccc(OCC(=O)Nc2cc(-c3nc4ccccc4[nH]3)ccc2Cl)cc1`
-4

Quick one: inhibition of Cc1nc(-c2cccc(C(=O)NC3CCC(CCN4CCc5ccc(-c6cccnc6)cc5CC4)CC3)c2)no1 (stereo not given) ?
-1

Consider the compound shown here: `COc1cc(-c2ccc3c(-c4ccc(C(=O)N5CCN(C)CC5)cc4)[nH]nc3n2)cc(OC)c1OC` What is its recorded inhibition?
4

Any idea what its inhibition is? The compound is O=C(NC1CCN(c2ccnc3cc(Cl)ccc23)C1)c1cccc(F)c1 (stereo not given)
1

Can you share its inhibition? I mean this compound: `COc1cc(Cc2cnc(N)nc2N)cc(OC)c1OCCCCCN1C(=O)c2ccccc2C1=O`
3

So what's the measured inhibition for this one? N#Cc1ccccc1C1CCN(C2CCC(Nc3cc(-c4cccnc4)ccn3)CC2)CC1 (stereo not given)
5

Find the recorded inhibition belonging to CCC1CN2CCc3c([nH]c4ccccc34)C2CC1CC1=NCCc2c1[nH]c1ccc(OC)cc21 (stereo not given) and report it.
1

Consider the compound shown here: `CCOc1ccc2c(NN=Cc3c4ccccc4cc4ccccc34)cc(C)nc2c1` What is its recorded inhibition?
0

Name the recorded inhibition for `O=C(N[C@@H](Cc1ccccc1)[C@H](O)CNC1CCCCC1)c1cc(C2CCCC2)cc(N2CCCC2=O)c1` .
0

May I ask what inhibition has been recorded for Cc1ccc(-c2nnc(Nc3ccc(OCC(N)=O)cc3)c3ccccc23)cc1S(=O)(=O)NCC1CCCO1 (stereo not given) ?
-2
